In what follows, each item is paired with its ΔTm for Serine/threonine-protein kinase pim-3 (Homo sapiens).
endpoint: ΔTm (°C)

COc1ccc(CNC(=O)Nc2ncc([N+](=O)[O-])s2)cc1    1.5
Cc1[nH]c(/C=C2\C(=O)Nc3ccc(S(=O)(=O)N(C)c4cccc(Cl)c4)cc32)c(C)c1C(=O)N1CCN(C)CC1    9.7
CC(C)n1cnc2c(NCc3ccccc3O)nc(NCCCO)nc21    0.4
COc1cccc(-c2cc(=O)c3ccccc3o2)c1N    0.7
Cn1cc(C2=C(c3cn(CCCN)c4ccccc34)C(=O)NC2=O)c2ccccc21    6.7
C=CNC#N    1
OC[C@H]1O[C@@H](n2cnc3cc(Cl)c(Cl)cc32)[C@H](O)[C@@H]1O    3.1
CN(C)CC1CCn2c(c(C3=C(c4c[nH]c5ccccc45)C(=O)NC3=O)c3ccccc32)C1 (centres undefined)    3.4
CC(C)N(CCO)c1nc(Nc2cccc(Cl)c2)c2ncn(C(C)C)c2n1    1.4
CSc1nc(-c2ccc(F)cc2)c(-c2ccnc(NC(C)c3ccccc3)c2)[nH]1 (racemic)    -0.5
CC(C)n1cnc2c(NCc3ccccc3)nc(NCCCO)nc21    1
COC1=C2C[C@@H](C)C[C@H](OC)[C@H](O)[C@@H](C)/C=C(\C)[C@H](OC(N)=O)[C@@H](OC)/C=C\C=C(/C)C(=O)NC(=CC1=O)C2=O    0.5
Nc1cccc(-c2cc3c(Oc4cccc(O)c4)ncnc3[nH]2)c1    0.3
Cc1cncc2cccc(S(=O)(=O)N3CCCNC[C@@H]3C)c12    0.8
CN(C)S(=O)(=O)c1ccc2c(c1)/C(=C/c1cc3c([nH]1)CCCC3)C(=O)N2    1.7
COc1cc(C[C@H]2C(=O)OC[C@@H]2Cc2ccc(OC)c(OC)c2)ccc1O [ARCTIGENIN]    0.6
COc1cc2ncnc(Nc3cccc(Br)c3)c2cc1OC    1.6
N#C/C(=C\c1ccc(O)c(O)c1)C(=O)NCc1ccccc1    3.1
CN(C)c1ncnc2nc[nH]c12 [DIMETHYLADENINE]    0.9
CCOC(=O)c1c(C)[nH]c(/C=C2\C(=O)Nc3ccccc32)c1C    0.3
Cc1cc(Nc2nc(-c3ccccc3)nc3ccccc23)n[nH]1    5.2
Cn1cc(/C=C2/C(=O)Nc3ccc(S(N)(=O)=O)cc32)c2ccccc21    3.4
C[C@@H]1C[C@H]2O[C@@H]2/C=C\C=C\C(=O)Cc2c(Cl)c(O)cc(O)c2C(=O)O1 [RADICICOL]    0.5
O=S(=O)(c1cccc2c(Cl)cccc12)N1CCCNCC1    3.5
O=c1c(-c2ccc(F)cc2)c(-c2ccncc2)[nH]n1-c1ccc(Cl)cc1    0.5
O=C(O)/C=C/c1cc(CO)ccc1CO    2.2
O=c1sn(Cc2ccccc2)c(=S)n1Cc1ccccc1    0.3
CC[C@H](CO)Nc1nc(NCc2ccccc2)c2ncn(C(C)C)c2n1 [SELICICLIB]    0.5
O=C1C=C2C(=Nc3c2c2c(c4c3=NC3=C4CCC=C3)C=NC=2)CC1    1.7
NC1=N/C(=C2/CCNC(=O)c3[nH]ccc32)C(=O)N1 [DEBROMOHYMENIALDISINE]    2.4
CCOC(=O)c1cnc2oc3ccc(O)cc3c2c1-c1ccccc1    5.2
Nc1n[nH]c2nnc(-c3c(-c4ccccc4)nn4ccccc34)cc12    1.2
O=C1c2ccccc2-c2n[nH]c3cccc1c23    4.8
O=[N+]([O-])c1ccc(-c2nc(-c3ccc(F)cc3)c(-c3ccncc3)[nH]2)cc1    0.7
